system: RARa homodimer (NR concentration 270 nM); assay: PBM binding z-score (relative to random genomic background probes); higher = stronger binding; sequences stand for … in GC…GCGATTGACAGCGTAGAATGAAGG
Give measured PBM binding z-score for each item. Keep answers brief.
Give the figure only, with no unit attached.

Task: Look at this sequence and give its reported PBM binding z-score. ACTAGTTGGTCAGCTGAGGTCACGCACAATTCGG
Result: 0.816

Task: Look at this sequence and give its reported PBM binding z-score. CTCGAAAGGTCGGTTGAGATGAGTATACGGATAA
Result: 0.533

Task: Look at this sequence and give its reported PBM binding z-score. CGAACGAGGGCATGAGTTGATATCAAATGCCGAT
Result: -0.464

Task: Look at this sequence and give its reported PBM binding z-score. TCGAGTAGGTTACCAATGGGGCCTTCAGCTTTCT
Result: -1.27

Task: Look at this sequence and give its reported PBM binding z-score. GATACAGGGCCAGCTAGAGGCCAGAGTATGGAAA
Result: -0.203

Task: Look at this sequence and give its reported PBM binding z-score. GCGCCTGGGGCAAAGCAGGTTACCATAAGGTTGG
Result: -0.592

Task: Look at this sequence and give its reported PBM binding z-score. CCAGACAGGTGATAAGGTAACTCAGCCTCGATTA
Result: 0.984

Task: Look at this sequence and give its reported PBM binding z-score. AGAATGAGGTTACCAAAGATCCGGGAAACGCTTG
Result: 0.0139

Task: Look at this sequence and give its reported PBM binding z-score. TAGCCTAGGTCATTGGGCCAGTGTAGTACGCATC
Result: -0.103

Task: Look at this sequence and give its reported PBM binding z-score. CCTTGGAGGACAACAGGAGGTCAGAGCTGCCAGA
Result: 0.276

Task: Look at this sequence and give its reported PBM binding z-score. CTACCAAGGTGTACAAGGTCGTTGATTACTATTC
Result: 0.124

Task: Look at this sequence and give its reported PBM binding z-score. ACTAGTTGGTCAGCTGAGGTCCCACACAATTCGG
Result: -0.0479
